- assay.comment: Intrinsic clearance in rat liver microsomes at 1 uM after 30 mins in presence of NADPH
- Format: ADME, Microsome
- stated.conditions: read-out: CLH
Range-based classes on measured microsomal CLint at 1 µM: low = under 50 µL/min/mg, medium = from 50 µL/min/mg up to 100 µL/min/mg, high = 100 µL/min/mg and over

# classify by microsomal CLint at 1 µM band: Cc1nc2cccc(-c3cc4c([nH]3)CCCNC4=O)c2nc1NC(C)(C)C
high

More entries:
# classify by microsomal CLint at 1 µM band: Cc1nc2cccc(-c3cc4c([nH]3)[C@H](C)NC4=O)c2nc1NC(C)(C)C
high

# classify by microsomal CLint at 1 µM band: Cc1nc2cccc(-c3cc4c([nH]3)CCNC4=O)c2nc1NC(C)(C)C
medium

# classify by microsomal CLint at 1 µM band: Cc1nc2cccc(-c3cc4c([nH]3)CNC4=O)c2nc1NC(C)(C)C
medium

# classify by microsomal CLint at 1 µM band: Cc1nc2cccc(-c3cc4c([nH]3)C3(CC3)NC4=O)c2nc1NC(C)(C)C
medium

# classify by microsomal CLint at 1 µM band: Cc1nc2cccc(-c3cc4c([nH]3)C3(CCOCC3)NC4=O)c2nc1NC(C)(C)C
low

# classify by microsomal CLint at 1 µM band: Cc1nc2cccc(-c3cc4c(s3)C(=O)NC4)c2nc1NC(C)(C)C
high

# classify by microsomal CLint at 1 µM band: C[C@H]1NC(=O)c2cc(-c3c(F)ccc4c(=O)n(C)c(NC(C)(C)C)nc34)[nH]c21
low

# classify by microsomal CLint at 1 µM band: Cc1nc2ccc(F)c(-c3cc4c([nH]3)CCNC4=O)c2nc1NC(C)(C)C
high
